assay: NCI Yeast Anticancer Drug Screen. Data for the rad14 strain (AID 159); conditions: S. cerevisiae rad14 strain growth inhibition; at 11.0 µM
This is part of a sample that, as a whole, favours compounds with a hit. Of some 79,000 tested, about 15% had one in any assay. Calls of active or inactive are those of the source. Cut-off read from the data, not from the text of the source: active = growth inhibition above about 70%; inactive = the rest.
Outcomes: active, inactive

{"COMPOUND": "OC(c1ccc(F)cc1)(c1ccc(F)cc1)C1CC1", "LABEL VALUE": "inactive"}
{"COMPOUND": "CCOC(=O)[C@H]1Nc2ccccc2C2c3ccccc3CC21 (stereo not given in full)", "LABEL VALUE": "inactive"}
{"COMPOUND": "O=[N+]([O-])c1cc2no[n+]([O-])c2cc1N1CCCCC1", "LABEL VALUE": "active"}
{"COMPOUND": "O=[N+]([O-])C(=C(Sc1ccccc1)Sc1ccccc1)C(Cl)=C(Cl)Cl", "LABEL VALUE": "inactive"}
{"COMPOUND": "CN1CCc2ccccc2C1Cc1ccccc1NC(=O)c1sc2ccccc2c1Cl (stereo not given)", "LABEL VALUE": "inactive"}
{"COMPOUND": "O=C(NCCCCCCCN1CCCCCCC1)C(C1CCCCC1)C1CCCCC1", "LABEL VALUE": "active"}
{"COMPOUND": "O=C1c2ccccc2C(=O)c2cc(CBr)ccc21", "LABEL VALUE": "inactive"}
{"COMPOUND": "O=C(O)c1ccccc1-c1ccccc1C(=O)Nc1ccc2c(c1)Cc1ccccc1-2", "LABEL VALUE": "inactive"}
{"COMPOUND": "CC(C)(C)c1nc2c(o1)C(=O)c1ccccc1C2=O", "LABEL VALUE": "inactive"}
{"COMPOUND": "O=C1c2ccccc2-c2n[nH]c3cccc1c23", "LABEL VALUE": "inactive"}
{"COMPOUND": "Brc1ccc(-c2cc3c(cc2C2SCCS2)OCO3)cc1", "LABEL VALUE": "inactive"}
{"COMPOUND": "CCOC(=O)c1cc(-c2ccc(Cl)cc2)c([N+](=O)[O-])n1C", "LABEL VALUE": "inactive"}
{"COMPOUND": "CN(N=O)N1C(=O)SCC(c2ccccc2)(c2ccccc2)C1=O", "LABEL VALUE": "inactive"}
{"COMPOUND": "c1ccc2c(c1)Oc1cccc3cccc-2c13", "LABEL VALUE": "inactive"}
{"COMPOUND": "C[S+](C)C1(c2ccccc2)C(=O)c2ccccc2C1=O", "LABEL VALUE": "inactive"}
{"COMPOUND": "CNC1C(OC2C(OC3C(O)C(O)C(N=C(N)N)C(O)C3N=C(N)N)OC(C)C2(O)CO)OC(CO)C(O)C1O (stereo not given)", "LABEL VALUE": "inactive"}
{"COMPOUND": "CCCc1cc(C(=O)OCC)cc(CCC)c1O", "LABEL VALUE": "inactive"}
{"COMPOUND": "CCc1ccc(NS(=O)(=O)c2ccccc2)c([N+](=O)[O-])c1", "LABEL VALUE": "inactive"}
{"COMPOUND": "OC1CSCCCSCCSCCCSC1", "LABEL VALUE": "inactive"}
{"COMPOUND": "CCN(CC)CCNc1ccc([N+](=O)[O-])c2nc3ccc(OC)cc3c(N)c12", "LABEL VALUE": "inactive"}
{"COMPOUND": "c1ccc(-c2ccnc3c2ccc2c(-c4ccccc4)ccnc23)cc1", "LABEL VALUE": "inactive"}
{"COMPOUND": "CC[C@@]1(O)C(=O)OCc2c1cc1n(c2=O)Cc2cc3c(CN(C)C)c(O)ccc3nc2-1", "LABEL VALUE": "inactive"}
{"COMPOUND": "Clc1ccc(SC(/C=C/NNC2=NC(c3ccccc3)C(c3ccccc3)=NN2)c2ccccc2)cc1 (stereo not given)", "LABEL VALUE": "inactive"}
{"COMPOUND": "S=C(S)NN1CCOCC1", "LABEL VALUE": "inactive"}
{"COMPOUND": "C(CCSC1=NCCN1)CSC1=NCCN1 (tested in a mixture with another compound)", "LABEL VALUE": "active"}
{"COMPOUND": "C[C@H](CCC(=O)NN)[C@H]1CC[C@H]2[C@@H]3CC[C@@H]4C[C@H](O)CC[C@]4(C)[C@H]3CC[C@]12C", "LABEL VALUE": "inactive"}
{"COMPOUND": "S=c1[nH]nc(Nc2ccc(Cl)cc2)s1", "LABEL VALUE": "inactive"}
{"COMPOUND": "O=C1C=CC(=O)c2c(O)c(Nc3ccc(OC(F)(F)F)cc3)c(Cl)c(O)c21", "LABEL VALUE": "inactive"}
{"COMPOUND": "CN(C)C[C@H]1CC[C@@H](CN(C)C)C1=O", "LABEL VALUE": "inactive"}
{"COMPOUND": "CC(/C=C/c1ccc(Cl)cc1)=N\\NC(=S)NCC(C)C", "LABEL VALUE": "inactive"}
{"COMPOUND": "CN(C)Cc1cc(N=Nc2ccc(Cl)cc2)cc(CN(C)C)c1O", "LABEL VALUE": "inactive"}
{"COMPOUND": "CCCCCCCCCCCCCCCCCCOCC(O)COP(=O)(O)OCC1OC(n2cc(F)c(=O)[nH]c2=O)CC1O (stereo not given)", "LABEL VALUE": "inactive"}
{"COMPOUND": "Cc1cc(N=Nc2ccc(S(=O)(=O)[O-])cc2)cc(C(=O)[O-])c1[O-].NC1CCCCC1N.[Na+].[Pt+4]", "LABEL VALUE": "active"}
{"COMPOUND": "CCCCCCCCCCC(=O)Cl", "LABEL VALUE": "inactive"}
{"COMPOUND": "Cc1c(C(=O)C(=O)c2ccccc2)c(C)c(C(=O)C(=O)c2ccccc2)c(C)c1C(=O)C(=O)c1ccccc1", "LABEL VALUE": "inactive"}
{"COMPOUND": "[O-][n+]1c2ccc(O)cc2nc2ccc(Br)cc21", "LABEL VALUE": "inactive"}
{"COMPOUND": "CCC/C(Cl)=N\\OC(=O)Nc1cccc(C(F)(F)F)c1", "LABEL VALUE": "inactive"}
{"COMPOUND": "O=C(c1ccc(Cl)cc1)C1OC12C(=O)Nc1ccccc12 (stereo not given)", "LABEL VALUE": "active"}
{"COMPOUND": "O=C1OC(=O)C2CCCC3CCCC1C32 (stereo not given)", "LABEL VALUE": "inactive"}
{"COMPOUND": "CC(Br)C(=O)c1ccc2cc(Br)c3ccccc3c2c1 (stereo not given)", "LABEL VALUE": "inactive"}
{"COMPOUND": "NCCNc1ccc(NCCN)c2c1C(=O)c1c(O)ccc(O)c1C2=O", "LABEL VALUE": "inactive"}
{"COMPOUND": "S=C(Nc1ccc(Cl)c(Cl)c1)SCc1ccc2c(c1)OCO2", "LABEL VALUE": "active"}
{"COMPOUND": "Cc1cc(CO)c(O)c(CNCc2cc(C)cc(CO)c2O)c1", "LABEL VALUE": "inactive"}
{"COMPOUND": "CC(=O)Cc1ccc[cH-]1.[Fe+2].c1cc[cH-]c1", "LABEL VALUE": "inactive"}
{"COMPOUND": "Cc1cccc2c(C(O)CBr)cc(-c3ccc(Cl)cc3)nc12 (stereo not given)", "LABEL VALUE": "active"}
